experiment: Drug metabolism in iv dosed Sprague-Dawley rat blood after 5 mins; format: ADME, organism-based; settings: read-out: Drug metabolism
reported-property: metabolised at 5 min (%)
The response must be a number in % with no trailing unit.

Consider the molecule `O=C(Nc1ccc(N2C(=O)c3cccc([18F])c3C2=O)c(Cl)c1)c1ccccn1` and give its measured metabolised at 5 min.
90

###

biological target: Metabotropic glutamate receptor 4 (Rattus norvegicus); assay: Displacement of [3H]ML128 from rat mGlu4 receptor expressed in CHO cells after 30 mins by liquid scintillation counting analysis; type: cell-based; details: read-out: IC50
Sequence (P31423 whole entry): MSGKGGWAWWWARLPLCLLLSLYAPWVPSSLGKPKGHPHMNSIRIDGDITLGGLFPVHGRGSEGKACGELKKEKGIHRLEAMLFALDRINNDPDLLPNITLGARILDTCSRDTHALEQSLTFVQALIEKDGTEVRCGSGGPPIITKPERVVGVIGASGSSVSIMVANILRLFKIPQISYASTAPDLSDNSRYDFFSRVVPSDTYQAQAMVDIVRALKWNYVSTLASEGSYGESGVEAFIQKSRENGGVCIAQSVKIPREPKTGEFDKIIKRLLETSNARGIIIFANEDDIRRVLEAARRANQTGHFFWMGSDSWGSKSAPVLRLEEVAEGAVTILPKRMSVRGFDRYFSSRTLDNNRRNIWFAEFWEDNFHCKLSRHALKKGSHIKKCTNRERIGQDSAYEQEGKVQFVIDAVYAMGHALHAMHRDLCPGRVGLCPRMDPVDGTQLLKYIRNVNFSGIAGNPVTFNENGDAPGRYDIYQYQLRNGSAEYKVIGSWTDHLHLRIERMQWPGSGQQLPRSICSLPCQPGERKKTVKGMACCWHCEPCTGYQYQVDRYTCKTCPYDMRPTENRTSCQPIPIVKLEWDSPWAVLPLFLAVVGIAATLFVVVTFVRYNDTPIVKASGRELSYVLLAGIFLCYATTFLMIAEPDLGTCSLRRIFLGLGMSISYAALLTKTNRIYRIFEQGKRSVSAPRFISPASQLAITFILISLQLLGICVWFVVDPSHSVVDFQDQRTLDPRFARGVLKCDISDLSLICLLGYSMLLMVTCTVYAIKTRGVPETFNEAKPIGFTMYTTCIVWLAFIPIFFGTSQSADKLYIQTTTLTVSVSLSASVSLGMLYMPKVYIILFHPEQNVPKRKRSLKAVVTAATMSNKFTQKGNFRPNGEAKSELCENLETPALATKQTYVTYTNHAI
Recorded pIC50 values for a group of compounds are listed next.
// scale note: pIC50 = -log10(conc_M); give the bare number

Below, 3 compounds whose answers are already recorded.
[[record]]
chem_smiles = "Cc1cccc2c1C(=O)N(c1ccc(NC(=O)c3ccccn3)cc1Cl)C2=O"
system_tested = "Metabotropic glutamate receptor 4 (Rattus norvegicus)"
observed_result = 8.38

[[record]]
chem_smiles = "O=C(Nc1ccc(N2C(=O)c3cccc(I)c3C2=O)c(Cl)c1)c1ccccn1"
system_tested = "Metabotropic glutamate receptor 4 (Rattus norvegicus)"
observed_result = 7.58

[[record]]
chem_smiles = "O=C(Nc1ccc(N2C(=O)c3cccc(Br)c3C2=O)c(Cl)c1)c1ccccn1"
system_tested = "Metabotropic glutamate receptor 4 (Rattus norvegicus)"
observed_result = 7.93


Attention now shifts to the item below.
Fill in: pIC50 of `O=C(Nc1ccc(N2C(=O)c3cccc(F)c3C2=O)c(Cl)c1)c1ccccn1` is ___
8.29
